// provenance: ChEMBL document CHEMBL3865822

Method description: Cytotoxicity against human MCF7 cells assessed as reduction in cell viability after 48 hrs by CCK8 assay
Type: functional, cell-based
Assay conditions: MCF7, 48 h
pIC50: −log10 of the molar value.
Readout label: pIC50

Mol: CC(=O)c1c(C)c2cnc(Nc3ccc(N4CCN(C(=O)OC(C)C)CC4)cn3)nc2n(C2CCCC2)c1=O
Val: < 5.70
--
Mol: CCCOC(=O)N1CCN(c2ccc(Nc3ncc4c(C)c(C(C)=O)c(=O)n(C5CCCC5)c4n3)nc2)CC1
Val: < 5.70
--
Mol: CCOC(=O)CN1CCN(c2ccc(Nc3ncc4c(C)c(C(C)=O)c(=O)n(C5CCCC5)c4n3)nc2)CC1
Val: < 5.70

Request the reported pIC50 associated with "CC(=O)c1c(C)c2cnc(Nc3ccc(N4CCN(C(=O)CC#N)CC4)cn3)nc2n(C2CCCC2)c1=O"
5.82

###

Record form. Attribute: IC50. Fill in for each entry.
Method description: Cytotoxicity against human MCF7 cells assessed as reduction in cell viability after 48 hrs by CCK8 assay
Assay type: functional, cell-based
Assay conditions: MCF7, 48 h

Mol: CCCC(=O)OCN1CCN(c2ccc(Nc3ncc4c(C)c(C(C)=O)c(=O)n(C5CCCC5)c4n3)nc2)CC1
Val: > 2 µM
//
Mol: CC(=O)c1c(C)c2cnc(Nc3ccc(N4CCN(C(=O)OCC(C)C)CC4)cn3)nc2n(C2CCCC2)c1=O
Val: > 2 µM
//
Mol: CC(=O)c1c(C)c2cnc(Nc3ccc(N4CCN(C(C)=O)CC4)cn3)nc2n(C2CCCC2)c1=O
Val: > 2 µM

Item "COC(=O)N1CCN(c2ccc(Nc3ncc4c(C)c(C(C)=O)c(=O)n(C5CCCC5)c4n3)nc2)CC1" has what recorded IC50?
> 2 µM
